Test: E. coli acrAB mutant growth effects, primary screen, E. coli filamentation inducers, strain DRC39, OD650, 24 h (AID 1178);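 also: growth measured as culture turbidity by optical density at 650 nm; test concentration not given here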
Conditions: higher = more signal, called active from +8 up or from −8 down
reported-property: z-score
The response must contain the number and no unit.

# count of solved cases: 3
compound	z-score
CC[C@H]1C2=C3C(CC[C@H]4C(OCc5ccc(F)cc5C(F)(F)F)OC[C@](C)([C@@H]34)N(C(=O)OC(C)(C)C)C2)C2COC(=O)OCC21 (some centres undefined)	-0.678
C=C(CCCC)C(=O)CC[C@@H](OC(=O)c1cccnc1)c1ccccc1OCCO	0.604
COc1ccc([Si](C)(C)[C@H]2[C@H](CCn3cc(CCO)nn3)O[C@@]3(C(=O)N(Cc4ccc(N5C(=O)c6cccc7cccc5c67)cc4)c4ccccc43)[C@@H]2C)cc1	0.528

query: Give its z-score value. Item: C=CCN1C(=O)[C@@]2(O[C@@H](CCO)[C@H]([Si](C)(C)c3ccc(OC)cc3)[C@H]2C)c2cc(N3C(=O)c4ccccc4Oc4ccccc43)ccc21
result: 2.24
